The measurements presented in this section are drawn from ChEMBL document CHEMBL1201862.

system: MDA-N; assay: NCI tumour cell line growth inhibition, 48 h
Calls of active or inactive are those of the source. Cut-off read from the data, not from the text of the source: active = GI50 up to about 1.1 µM and inactive = higher.
Outcome field: choose from active, inactive

1. NS(=O)(=O)c1cc(C(=O)O)c(O)c2ccccc12 = inactive
2. O=C1/C(=C/c2cccc(Br)c2)CCc2ccccc21 = inactive

### Prompt Hi, do you know how CC(C)c1nc(Cl)nc(Cl)c1Cl came out in this test?
### Response active

### Prompt Hi, do you know how CC(N/N=C(\S)N1CCCC1)c1cccnn1 (stereo not drawn) came out in this test?
### Response inactive

### Prompt Hi, do you know how CCC(c1ccc(OC)cc1)C1NC(=S)NC1=O (stereo not drawn) came out in this test?
### Response inactive

###

Record form. Attribute: GI50. Fill in for each entry.
system: SW-620; test: NCI tumour cell line growth inhibition, 48 h
Calls of active or inactive are those of the source. Rule as the data show it: active = GI50 up to about 1.1 µM and inactive = higher.

1. CC[C@](C)(O)C(=O)O[C@H]1C(=O)O[C@@H]2C[C@H]3C(C)=C[C@H](O)[C@@H](O)[C@]3(C)[C@H]3[C@@]4(O)OC[C@]32[C@@H]1[C@@H](C)[C@H]4O = 12.4 µM (inactive)
2. Nc1cccc(OCc2nc(N)nc(N)c2-c2ccc(Cl)cc2)c1 = 50.6 µM (inactive)
3. O=C(CCN(CCO)CCO)Nc1ccc2c(c1)C(=O)c1ccc(NC(=O)CCN(CCO)CCO)cc1C2=O = 6.73 µM (inactive)

What the record says about O=C1OC(C(O)C(O)C(O)CO)C(O)C1O (centres undefined) : GI50 is > 100 µM (inactive)

###

Record form. Attribute: GI50. Fill in for each entry.
test system: NCI/ADR-RES; experiment: NCI tumour cell line growth inhibition, 48 h
Activity calls are given as the source filed them. Cut-off read from the data, not from the text of the source: active = GI50 up to about 1.1 µM and inactive = higher. Where a SMILES comes first, the peptide text is derived from it. The star is where a group is joined. Fmoc = O=C(OCC1c2ccccc2-c2ccccc21)*; OBn = c1ccc(CO*)cc1; tBu = CC(C)(C)*

1) CC[C@@H]1CC[C@@H]2[C@H](CC[C@]3(C)[C@@H](OC(C)=O)CC[C@@H]23)[C@H]1C(=O)OC = 26.9 µM (inactive)
2) CC(OC(C)(C)C)C(NC(=O)OCC1c2ccccc2-c2ccccc21)C(=O)NC(Cc1ccccc1)C(=O)OCc1ccccc1 (configuration not stated) (Fmoc-Thr(tBu)-Phe-OBn; configuration not given here) = > 100 µM (inactive)
3) CC[C@H]1CN(C)[C@H]2Cc3c([nH]c4ccccc34)C(=O)C[C@H]1C2C(=O)OC (some centres not stated) = > 100 µM (inactive)

Below is a list of molecules. For each, state its recorded GI50.
1. O=C(c1ccc(-c2ccccc2)cc1)N(Cc1cccnc1)C(=S)N(Cc1cccnc1)C(=O)c1ccc(-c2ccccc2)cc1
2. c1ccc(-c2cc(C3CO3)c3ccccc3n2)cc1 (configuration not stated)
3. COC(=O)CNC(=O)CCC(C)[C@H]1CCC2C3C(C[C@H](OC(C)=O)[C@@]21C)[C@@]1(C)CCC2(C[C@H]1C[C@H]3OC(C)=O)OOC1(CC[C@]3(C)C4C[C@H](OC(C)=O)[C@@]5(C)C(CC[C@@H]5C(C)CCC(=O)NCC(=O)OC)C4[C@H](OC(C)=O)C[C@@H]3C1)OO2 (some centres not stated)
4. COCc1nc2c(OC)c(-c3nc4ccc(N5CCN(C)CC5)nc4[nH]3)cc(OC)c2n1C

### Response
1: > 100 µM (inactive); 2: 24.3 µM (inactive); 3: 8.75 µM (inactive); 4: 55 µM (inactive)
